# ASSAY SYSTEM: human TLR9 (Homo sapiens, UniProt Q9NR96)
# Construct: host or cells: HEK-Blue cells
# Sequence (Q9NR96 26-1032): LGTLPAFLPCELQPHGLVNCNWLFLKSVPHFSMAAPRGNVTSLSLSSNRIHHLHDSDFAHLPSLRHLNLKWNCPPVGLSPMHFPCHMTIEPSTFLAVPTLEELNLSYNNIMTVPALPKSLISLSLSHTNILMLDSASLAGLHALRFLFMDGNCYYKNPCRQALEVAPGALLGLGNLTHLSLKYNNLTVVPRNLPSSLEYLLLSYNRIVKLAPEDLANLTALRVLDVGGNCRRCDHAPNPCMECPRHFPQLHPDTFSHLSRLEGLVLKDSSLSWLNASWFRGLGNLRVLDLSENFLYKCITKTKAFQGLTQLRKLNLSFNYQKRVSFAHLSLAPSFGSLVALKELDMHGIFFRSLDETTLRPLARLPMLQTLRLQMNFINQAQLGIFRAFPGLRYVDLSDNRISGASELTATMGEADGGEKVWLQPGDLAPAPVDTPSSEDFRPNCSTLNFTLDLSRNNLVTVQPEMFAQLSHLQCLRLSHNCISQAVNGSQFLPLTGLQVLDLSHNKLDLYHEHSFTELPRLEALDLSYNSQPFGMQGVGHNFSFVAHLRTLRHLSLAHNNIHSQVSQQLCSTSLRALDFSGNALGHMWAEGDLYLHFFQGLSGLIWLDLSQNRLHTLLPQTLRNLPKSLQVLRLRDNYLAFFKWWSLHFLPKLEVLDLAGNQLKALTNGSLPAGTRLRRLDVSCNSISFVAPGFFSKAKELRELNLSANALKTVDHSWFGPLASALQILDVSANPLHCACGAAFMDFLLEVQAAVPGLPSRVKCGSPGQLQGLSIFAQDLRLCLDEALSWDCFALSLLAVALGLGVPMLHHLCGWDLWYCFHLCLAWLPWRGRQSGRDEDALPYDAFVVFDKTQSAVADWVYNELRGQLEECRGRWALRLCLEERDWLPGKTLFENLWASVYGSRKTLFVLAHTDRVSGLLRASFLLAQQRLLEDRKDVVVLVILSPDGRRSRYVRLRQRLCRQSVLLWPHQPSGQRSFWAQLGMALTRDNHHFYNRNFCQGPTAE
# PROTOCOL SUMMARY: TLR9 inhibition reporter assay (HEK-Blue SEAP)
# Assay type: cell-based
# CONDITION PARAMETERS: HEK-Blue cells overexpressing human TLR9, stimulated with ODN2006 5 nM, 22 hour incubation
# Description: TLR7/8/9 Inhibition Reporter Assays HEK-Blue™-cells (Invivogen) overexpressing human TLR7, TLR8 or TLR9 receptors were used for screening inhibitors of these receptors using an inducible SEAP (secreted embryonic alkaline phosphatase) reporter gene under the control of the IFN-β minimal promoter fused to five NF-κB and AP-1-binding sites. […]
Reported IC50 by item:
Write down the numeric answer in µM and omit the unit.

Some compounds with known IC50 results, for comparison:
[[record]]
compound = "Cc1cc(-c2cc(C)c3ncnn3c2)cc2[nH]nc(OC3CCN(CC(=O)N(C)C)CC3)c12 [Example 176]"
numeric_readout = 4.92

[[record]]
compound = "Cc1cc(-c2cc3[nH]nc(C4CCC(NC5CC5)CC4)c3cc2C(C)C)cn2ncnc12 (single isomer, unassigned) [Example 118]"
numeric_readout = 4.13

[[record]]
compound = "Cc1cc(-c2cc(C)c3ncnn3c2)cc2[nH]nc(OC3CCNCC3)c12 [Example 174]"
numeric_readout = 0.438

[[record]]
compound = "CCc1cc2c(C3CCN(CC(=O)N(C)C)CC3)n[nH]c2cc1-c1cc(C)c2ncnn2c1 [Example 91]"
numeric_readout = 14.5

[[record]]
compound = "Cc1cc2c(C3CNC3)n[nH]c2cc1-c1cc(C)c2ncnn2c1 [Example 49]"
numeric_readout = 1.89

[[record]]
compound = "CCc1cc(-c2cc(C)c3ncnn3c2)cc2[nH]nc(C3CCN(CC(=O)N(C)C)CC3)c12 [Example 8]"
numeric_readout = 6.07


Answer with the recorded IC50 for the compound listed here: CCc1cc(-c2cc(C)c3ncnn3c2)cc2[nH]nc(OC3CCC(N(C)C)CC3)c12 (single isomer, unassigned) [Example 169] 1.83

Answer with the recorded IC50 for the compound listed here: Cc1cc2c(C3CCN(CC(=O)N(C)C)CC3)n[nH]c2cc1-c1cc(C)c2ncnn2c1 [Example 23] 6.63

Answer with the recorded IC50 for the compound listed here: Cc1cc(-c2cc3[nH]nc(C4CCC(N5CCC6(COC6)C5)CC4)c3cc2C(C)C)cn2ncnc12 (single isomer, unassigned) [Example 159] 7.43

Answer with the recorded IC50 for the compound listed here: Cc1cc(-c2cc3[nH]nc(C4CCC(N5CCC(C)(O)C5)CC4)c3cc2C(C)C)cn2ncnc12 (single isomer, unassigned) [Example 165] 13.3

Answer with the recorded IC50 for the compound listed here: Cc1cc(-c2cc3[nH]nc(C4CCC(N5CCC(S(C)(=O)=O)C5)CC4)c3cc2C(C)C)cn2ncnc12 (single isomer, unassigned) [Example 212] 24.1

###

Reported pIC50 by item:
# ASSAY SYSTEM: human TLR8 (Homo sapiens)
# PROTOCOL SUMMARY: TLR8 inhibition reporter assay (HEK-Blue SEAP)
# CONDITION PARAMETERS: HEK-Blue cells overexpressing human TLR8, stimulated with R848 15.9 μM, 22 hour incubation
Formally, pIC50 is defined as -log10 of the concentration c, with c in mol/L.

[[record]]
molecule = "Cc1cc2cn[nH]c2cc1-c1cc(C)c2ncnn2c1"
assay_readout = "pIC50"
numeric_readout = 7.49


Answer with the recorded pIC50 for the molecule listed here: COc1cc(-c2cc(C)c3c(OC4CCC(N(C)C)CC4)n[nH]c3c2)cn2ncnc12 (single isomer, unassigned) [Example 184] 8.74

Answer with the recorded pIC50 for the molecule listed here: Cc1cc2c(C3CCC(N(C)C)CC3)n[nH]c2cc1-c1cc(C)c2ncnn2c1 (single isomer, unassigned) [Example 4] 9.15

Answer with the recorded pIC50 for the molecule listed here: CCc1cc2c(C3CCC(N(C)C)CC3)n[nH]c2cc1-c1cc(C)c2ncnn2c1 (single isomer, unassigned) [Example 93] 10.00

Answer with the recorded pIC50 for the molecule listed here: Cc1cc2c(C3CCCN(CC(=O)N(C)C)C3)n[nH]c2cc1-c1cc(C)c2ncnn2c1 (stereo not shown) [Example 53] 8.92

Answer with the recorded pIC50 for the molecule listed here: Cc1cc2c(C3CCC(NCCS(C)(=O)=O)CC3)n[nH]c2cc1-c1cc(C)c2ncnn2c1 (stereo not shown) [Example 31] 9.22

Answer with the recorded pIC50 for the molecule listed here: Cc1cc(-c2ccc3c(C4CCNCC4)n[nH]c3c2)cn2ncnc12 6.48

###

Reported pIC50 by item:
# ASSAY SYSTEM: human TLR8 (Homo sapiens)
# Sequence (Q9NR97 27-1041): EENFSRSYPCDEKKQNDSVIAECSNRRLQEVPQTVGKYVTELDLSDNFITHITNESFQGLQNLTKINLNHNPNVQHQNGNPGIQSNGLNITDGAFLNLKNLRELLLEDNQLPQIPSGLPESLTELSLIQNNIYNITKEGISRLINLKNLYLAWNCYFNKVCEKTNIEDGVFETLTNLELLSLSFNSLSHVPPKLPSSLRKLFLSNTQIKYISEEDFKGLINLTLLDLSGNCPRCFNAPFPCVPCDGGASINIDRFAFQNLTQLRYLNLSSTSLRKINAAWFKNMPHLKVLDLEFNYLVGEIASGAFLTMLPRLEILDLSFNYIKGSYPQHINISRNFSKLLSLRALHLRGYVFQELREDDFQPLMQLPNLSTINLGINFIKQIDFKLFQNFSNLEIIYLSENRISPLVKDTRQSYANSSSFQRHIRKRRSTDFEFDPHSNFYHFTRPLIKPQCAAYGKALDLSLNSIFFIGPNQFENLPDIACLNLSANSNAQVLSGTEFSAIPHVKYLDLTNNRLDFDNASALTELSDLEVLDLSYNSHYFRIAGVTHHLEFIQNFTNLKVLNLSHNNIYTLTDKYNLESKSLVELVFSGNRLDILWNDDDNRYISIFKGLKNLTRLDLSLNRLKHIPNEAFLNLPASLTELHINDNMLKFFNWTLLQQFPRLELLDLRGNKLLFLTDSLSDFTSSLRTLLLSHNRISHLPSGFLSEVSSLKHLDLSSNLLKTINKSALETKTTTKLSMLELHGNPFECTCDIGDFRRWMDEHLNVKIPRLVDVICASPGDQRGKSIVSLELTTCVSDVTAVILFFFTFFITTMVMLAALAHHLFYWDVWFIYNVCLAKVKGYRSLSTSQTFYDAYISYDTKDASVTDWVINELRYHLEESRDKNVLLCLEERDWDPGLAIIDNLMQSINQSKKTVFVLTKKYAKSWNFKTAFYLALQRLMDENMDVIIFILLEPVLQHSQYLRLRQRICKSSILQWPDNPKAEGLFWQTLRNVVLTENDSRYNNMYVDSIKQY
# PROTOCOL SUMMARY: TLR8 inhibition reporter assay (HEK-Blue SEAP)
# CONDITION PARAMETERS: HEK-Blue cells overexpressing human TLR8, stimulated with R848 15.9 μM, 22 hour incubation
Formally, pIC50 is defined as -log10 of the concentration c, with c in mol/L.

[[record]]
compound = "Cc1cc2c(C3CC(N(C)C)C3)n[nH]c2cc1-c1cc(C)c2ncnn2c1 (single isomer, unassigned) [Example 7]"
assay_system = "human TLR8 (Homo sapiens)"
numeric_readout = 8.89

[[record]]
compound = "CCc1cc2c(C3CCN(CC#N)CC3)n[nH]c2cc1-c1cc(C)c2ncnn2c1"
assay_system = "human TLR8 (Homo sapiens)"
numeric_readout = 9.10


Answer with the recorded pIC50 for the compound listed here: CCc1cc(-c2cc(C)c3ncnn3c2)cc2[nH]nc(C3CCN(C(=O)CN(C)C)CC3)c12 8.74

###

# ASSAY SYSTEM: UniProt Q9NR96
# PROTOCOL SUMMARY: TLR9 inhibition reporter assay (HEK-Blue SEAP)
# CONDITION PARAMETERS: HEK-Blue cells overexpressing human TLR9, stimulated with ODN2006 5 nM, 22 hour incubation
ASSAY READOUT: IC50 (µM)
Write down the numeric answer in µM and omit the unit.

[[record]]
molecule = "Cc1cc(-c2cc3[nH]nc(C4CCC(N5CC(C)(O)C5)CC4)c3cc2C(C)C)cn2ncnc12 (centres unmarked) [Example 153]"
uom = "µM"
numeric_readout = 7.45

[[record]]
molecule = "Cc1cc(-c2cc3[nH]nc(C4CCNCC4)c3cc2C(C)C)cn2ncnc12"
uom = "µM"
numeric_readout = 10.9


Answer with the recorded IC50 for the molecule listed here: Cc1cc2c(C3CCCNC3)n[nH]c2cc1-c1cn(C)c2ncccc12 (centres unmarked) 2.88

Answer with the recorded IC50 for the molecule listed here: Cc1cc(-c2ccc3c(C4CCNCC4)n[nH]c3c2)cn2ncnc12 3.19

###

# ASSAY SYSTEM: human TLR8 (Homo sapiens, UniProt Q9NR97)
# PROTOCOL SUMMARY: TLR8 inhibition reporter assay (HEK-Blue SEAP)
# CONDITION PARAMETERS: HEK-Blue cells overexpressing human TLR8, stimulated with R848 15.9 μM, 22 hour incubation
# Text: TLR7/8/9 Inhibition Reporter Assays HEK-Blue™-cells (Invivogen) overexpressing human TLR7, TLR8 or TLR9 receptors were used for screening inhibitors of these receptors using an inducible SEAP (secreted embryonic alkaline phosphatase) reporter gene under the control of the IFN-β minimal promoter fused to five NF-κB and AP-1-binding sites. […]
ASSAY READOUT: IC50 (nM)
Write down the numeric answer in nM and omit the unit.

Some compounds with known IC50 results, for comparison:
[[record]]
compound = "Cc1cc(-c2cc3[nH]nc(C4CCN(CC(C)(C)O)CC4)c3cc2C(C)C)cn2ncnc12"
assay_readout = "IC50"
numeric_readout = 0.1

[[record]]
compound = "Cc1cc(-c2cc3[nH]nc(C4CCC(N5CC(CO)(CO)C5)CC4)c3cc2C(C)C)cn2ncnc12 (centres unmarked)"
assay_readout = "IC50"
numeric_readout = 2.6

[[record]]
compound = "Cc1cc2c(C3CCN(CC#N)CC3)n[nH]c2cc1-c1cc(C)c2ncnn2c1"
assay_readout = "IC50"
numeric_readout = 3.3

[[record]]
compound = "Cc1cc(-c2cc(C)c3ncnn3c2)cc2[nH]nc(C3CCCN(C4CCOCC4)C3)c12 (centres unmarked)"
assay_readout = "IC50"
numeric_readout = 62.2

[[record]]
compound = "CCc1cc2c(C3CCN(C(C)C)CC3)n[nH]c2cc1-c1cc(C)c2ncnn2c1"
assay_readout = "IC50"
numeric_readout = 0.1


Answer with the recorded IC50 for the compound listed here: Cc1cc2c(OCCN(C)C)n[nH]c2cc1-c1cc(C)c2ncnn2c1 1.4

Answer with the recorded IC50 for the compound listed here: CCc1cc2c(OC3CCC(N(C)C)CC3)n[nH]c2cc1-c1cc(C)c2ncnn2c1 (single isomer, unassigned) [Example 192] 0.1

Answer with the recorded IC50 for the compound listed here: CCc1cc2c(C3CCC(NC4CC4)CC3)n[nH]c2cc1-c1cc(C)c2ncnn2c1 (single isomer, unassigned) [Example 98] 0.2
